I'd appreciate it if you could supply ADP/O values for the items below.
Test system: rat liver mitochondria (RLM)
Assay comment: Mitochondrial respiration of isolated RLM (Clark-type oxygen electrode): RCR, ADP/O
Type: biochemical
Condition: RLM, Glutamate/Malate, 10 μM
One number for each entry.

Solved cases (3 shown):
O=C(NCCCCCC[P+](c1ccccc1)(c1ccccc1)c1ccccc1)c1cc(O)c(O)c(O)c1.[Br-] [AntiOxBEN2]    2.1
O=C(NCCCCCC[P+](c1ccccc1)(c1ccccc1)c1ccccc1)c1ccc(O)c(O)c1.[Br-] [AntiOxBEN1]    2.1
COC1=C(OC)C(=O)C(CCCCCCCCCC[P+](c2ccccc2)(c2ccccc2)c2ccccc2)=C(C)C1=O.CS(=O)(=O)[O-] [MitoQ, reference compound]    2.0

// switching to the query compound
Kindly state the measured ADP/O obtained for O=C(CCCCC[P+](c1ccccc1)(c1ccccc1)c1ccccc1)NCCCCCCNC(=O)c1cc(O)c(O)c(O)c1.[Br-] [AntiOxBEN3] with rat liver mitochondria (RLM). 2.0

----------
System: rat liver mitochondria (RLM) membranes
Assay comment: RLM lipid peroxidation, TBARS assay (FeSO4/H2O2/ascorbate)
Condition: 5 μM, FeSO4/H2O2/ascorbate
Endpoint name: prevention of TBARS formation / mitochondria lipid peroxidation

O=C(NCCCCCC[P+](c1ccccc1)(c1ccccc1)c1ccccc1)c1ccc(O)c(O)c1.[Br-] [AntiOxBEN1]    not effective
O=C(O)c1cc(O)c(O)c(O)c1    most effective
O=C(CCCCC[P+](c1ccccc1)(c1ccccc1)c1ccccc1)NCCCCCCNC(=O)c1cc(O)c(O)c(O)c1.[Br-] [AntiOxBEN3]    most effective
O=C(O)c1ccc(O)c(O)c1    not effective

// switching to the query compound
What does the data say about its prevention of TBARS formation / mitochondria lipid peroxidation? Entry: O=C(NCCCCCC[P+](c1ccccc1)(c1ccccc1)c1ccccc1)c1cc(O)c(O)c(O)c1.[Br-] [AntiOxBEN2] most effective

----------
I'd appreciate it if you could supply RCR values for the items below.
System: rat liver mitochondria (RLM)
Assay comment: Mitochondrial respiration of isolated RLM (Clark-type oxygen electrode): RCR, ADP/O
Assay type: biochemical
Condition: RLM, Succinate, 2.5 μM
One number for each entry.

Solved cases (3 shown):
O=C(CCCCC[P+](c1ccccc1)(c1ccccc1)c1ccccc1)NCCCCCCNC(=O)c1cc(O)c(O)c(O)c1.[Br-] [AntiOxBEN3]    4.1
O=C(NCCCCCC[P+](c1ccccc1)(c1ccccc1)c1ccccc1)c1ccc(O)c(O)c1.[Br-] [AntiOxBEN1]    4.7
COC1=C(OC)C(=O)C(CCCCCCCCCC[P+](c2ccccc2)(c2ccccc2)c2ccccc2)=C(C)C1=O.CS(=O)(=O)[O-] [MitoQ, reference compound]    2.6

What does the data say about its RCR? Entry: O=C(NCCCCCC[P+](c1ccccc1)(c1ccccc1)c1ccccc1)c1cc(O)c(O)c(O)c1.[Br-] [AntiOxBEN2] 5.2

----------
System: rat liver mitochondria (RLM)
Assay comment: Mitochondrial transmembrane electric potential (safranine fluorescence)
Format: biochemical
Condition: Glutamate/Malate, 5 μM
Endpoint name: Maximum potential (ΔΨ in - mV)

Please supply Maximum potential (ΔΨ in - mV) for each of the following items, keeping them in order.
1. COC1=C(OC)C(=O)C(CCCCCCCCCC[P+](c2ccccc2)(c2ccccc2)c2ccccc2)=C(C)C1=O.CS(=O)(=O)[O-] [MitoQ, reference compound]
2. O=C(CCCCC[P+](c1ccccc1)(c1ccccc1)c1ccccc1)NCCCCCCNC(=O)c1cc(O)c(O)c(O)c1.[Br-] [AntiOxBEN3]
3. O=C(NCCCCCC[P+](c1ccccc1)(c1ccccc1)c1ccccc1)c1cc(O)c(O)c(O)c1.[Br-] [AntiOxBEN2]
4. O=C(NCCCCCC[P+](c1ccccc1)(c1ccccc1)c1ccccc1)c1ccc(O)c(O)c1.[Br-] [AntiOxBEN1]

1: 188.3 ± 10.6 - mV; 2: 221.4 ± 22.6 - mV; 3: 212.2 ± 19.8 - mV; 4: 224.8 ± 24.7 - mV
